System: E. coli TESEC Mtb DapB
Experiment: growth (OD600 after 10 h); higher = more growth (less inhibition)
Settings: arabinose induction (level): High; compound 0.1 mM; raw OD600 reference: median of DMSO wells […], cell-free background 0.041
Structures can show the parent of a compound that is named as a salt.
# cutoff 0.2 applies to growth; >= gives TRUE, < gives FALSE

Past entries and their recorded results:
compound=CCc1nc(N)nc(N)c1-c1ccc(Cl)cc1 classification=FALSE
compound=O=C1CCc2ccc(OCCCCN3CCN(c4cccc(Cl)c4Cl)CC3)cc2N1 classification=FALSE
compound="CCCNC(C)(C)COC(=O)c1ccccc1 [Meprylcaine hydrochloride]" classification=FALSE

query: Hi, just wondering whether Cc1c(OCC(F)(F)F)ccnc1C[S+]([O-])c1nc2ccccc2[nH]1 (stereo not given) shows growth of 0.2 or higher.
result: FALSE

query: Hi, just wondering whether Cc1cc2c(s1)Nc1ccccc1N=C2N1CCN(C)CC1 shows growth of 0.2 or higher.
result: TRUE

query: Hi, just wondering whether Nc1nc(O)c2ncn(CCC(CO)CO)c2n1 shows growth of 0.2 or higher.
result: TRUE

query: Hi, just wondering whether O=C(O)Cc1ccc(-c2ccccc2)cc1 shows growth of 0.2 or higher.
result: FALSE

====

Give growth for every item shown.
Tested on: E. coli TESEC Mtb Alr
Assay: growth (OD600 after 10 h); higher = more growth (less inhibition)
Details: arabinose 100 nM; compound 0.1 mM; raw OD600 reference: median of DMSO wells 0.413, cell-free background 0.052
Where a name gives a salt, the structure may show the parent alone.
One number for each entry.

Here is how some compounds turned out for growth.
compound=Nc1nc(=O)c2nc(CNc3ccc(C(=O)N[C@@H](CCC(=O)O)C(=O)O)cc3)cnc2[nH]1 measured_metric=growth test_result=0.407
compound=Cn1cnc([N+](=O)[O-])c1Sc1ncnc2[nH]cnc12 measured_metric=growth test_result=0.312
compound="CCN(CC)C(C)CN1c2ccccc2Sc2ccccc21 (centres undefined) [Ethopropazine hydrochloride]" measured_metric=growth test_result=0.413

// next item, growth requested
query: Indicate the recorded growth value for this compound: NC1CCN(c2nc3c(cc2F)c(=O)c(C(=O)O)cn3-c2ccc(F)cc2F)C1 (centres undefined) [Tosufloxacin hydrochloride]
result: 0.0531

====

Test system: E. coli TESEC Mtb Alr
Assay: growth (OD600 after 10 h); higher = more growth (less inhibition)
Details: arabinose 1000 nM; compound 0.1 mM; raw OD600 reference: median of DMSO wells 0.294, cell-free background 0.041
Where a name gives a salt, the structure may show the parent alone.
measured_metric: growth

Provide growth for all items below, preserving their order.
1. Nc1ccn([C@@H]2CS[C@H](CO)O2)c(=O)n1
2. CCCN[C@H]1CCc2nc(N)sc2C1 [Pramipexole dihydrochloride]
3. Nc1nc(/C(=C/CC(=O)O)C(=O)N[C@@H]2C(=O)N3C(C(=O)O)=CCS[C@H]23)cs1

result:
1: 0.292; 2: 0.289; 3: 0.0633

Provide growth for all items below, preserving their order.
1. O=C1c2cccc(O)c2C(=O)c2c(O)cccc21 [1,8-Dihydroxyanthraquinone]
2. CC(=O)OCC1=C(C(=O)O)N2C(=O)[C@@H](NC(=O)Cc3cccs3)[C@H]2SC1 [Cephalothin sodium salt]

result:
0.15
0.334
